property: melting point

Answered cases to consult:
{"columns": ["molecule", "assay-result"],
 "data": [
  ["Cc1noc2cc3c(cc12)C1(CO3)C(=O)N(Cc2cnccn2)c2ccccc21 (centres undefined)", "170 to 173 °C"],
  ["O=C(NCC(=O)N1c2ccccc2N(Cc2ccccc2)C(=O)[C@H]2CCC[C@H]21)c1ccc([N+](=O)[O-])cc1 (relative stereo)", "231 to 233 °C"],
  ["O=c1c2c(oc3cc(OCCN4CCOCC4)ccc13)C(=Cc1ccccc1)CC2", "167 to 169 °C"],
  ["CC(=NNc1ccc(C2=NNC(=O)CC2C)cc1)c1ccc(O)cc1O (centres undefined)", "259 to 261 °C"],
  ["Fc1cc(Cl)c(OCC2=CCCOC2)cc1-n1nc2c(c1Cl)CCCC2", "90 to 92 °C"],
  ["COc1c(C(F)(F)F)cc([N+](=O)[O-])c(NN(C)C)c1[N+](=O)[O-]", "109 to 110 °C"],
  ["O=[N+]([O-])c1cc2nc(Cl)n(C3OC(CO)C(O)C3O)c2cc1[N+](=O)[O-] (centres undefined)", "132 to 135 °C"],
  ["COc1ccccc1C1OC2(CCNCC2)N2CCCCC12 (centres undefined)", "185 to 186 °C"]
]}

## Task I have this molecule here, `CCCc1c(OCCCOc2ccc(C(=O)CCC(=O)O)c(F)c2)ccc(C(C)=O)c1O` , and I need its recorded melting point.
## Result 113 to 118 °C

----------
We begin with a simple list: items and their reported melting point.

Answered cases to consult:
{"columns": ["molecule", "assay-result"],
 "data": [
  ["Cc1cc2nc(Cl)c(Cl)nc2c([N+](=O)[O-])c1C", "133 to 134 °C"],
  ["CC(C)c1nnn(-c2c(Cl)cccc2Cl)c1COc1ccc(N(C)C(=O)c2ccc(C(=O)O)cc2)c(C(F)(F)F)n1", "218 to 219 °C"],
  ["NC(CO)(CO)CCc1ccc(C(=O)CCCCc2ccccc2)cc1", "126 to 127 °C"],
  ["CC(=O)C1=CCC2C3CCC4CC5OC5CC4(C)C3CCC12C (stereo not given)", "145 to 149 °C"],
  ["CC(=O)Nc1cccc2c1SC(C)C2 (stereo not given)", "125 to 127 °C"],
  ["COC(=O)CCCc1ccc(S(=O)(=O)Nc2ccc(Cl)cc2)cn1", "80 to 81 °C"]
]}

## Task I have this molecule here, `C[C@@H](O)c1nccc(N2CCN(c3nc4ccncc4o3)CC2)n1` , and I need its recorded melting point.
## Result 181 to 183 °C

## Task I have this molecule here, `ClCc1coc(-c2ccoc2)n1` , and I need its recorded melting point.
## Result 70 to 71 °C

## Task I have this molecule here, `COc1ccccc1OCC(=O)NCCO[N+](=O)[O-]` , and I need its recorded melting point.
## Result 63 to 64 °C

## Task I have this molecule here, `COc1cc(OCc2cccnc2)ccc1/C=C/c1cc(/C=C/c2c[nH]c3ccccc23)n[nH]1` , and I need its recorded melting point.
## Result 129 to 137 °C

----------
We begin with a simple list: items and their reported melting point.

Answered cases to consult:
{"columns": ["compound", "assay-result"],
 "data": [
  ["C=CCc1c(O)cc(O)c(C(C)=O)c1O", "158 to 159 °C"],
  ["CC(C)(S)CN1CCN(c2ccccn2)CC1", "108 to 110 °C"],
  ["CC(C)C1CC(=O)Nc2nc(C#N)c3ncccc3c21 (configuration not stated)", "220 °C"]
]}

## Task I have this compound here, `CS(=O)(=O)NC1(c2ccc(I)cc2)CC1` , and I need its recorded melting point.
## Result 101 to 102 °C

## Task I have this compound here, `OCCC[C@H]1OC[C@H](c2ccc(Cl)c3ccccc32)CO1` , and I need its recorded melting point.
## Result 127 to 129 °C
